Tested on: lymphocytic leukemia P388
Experiment: in vivo lymphocytic leukemia P388 test
Design: species or system mice
Settings: Mus musculus, P388, ip, 720 h, P388, Dose 6.25 mg/kg intraperitoneally, two single doses four days apart; read-out: T/C × 100 (Percent)
response vs control in vivo at 6.25 mg/kg for assorted molecules
The response must be a number in % with no trailing unit.

Sample answers from the record:
- chem smiles: "CSCCn1nc2c3c(c(NCCNCCO)ccc31)C(=O)c1c(O)ccc(O)c1-2"
  test system: "lymphocytic leukemia P388"
  unit tag: "%"
  number: 140
- chem smiles: "O=C1c2c(O)ccc(O)c2-c2nn(CCO)c3ccc(NCCNCCO)c1c23"
  test system: "lymphocytic leukemia P388"
  unit tag: "%"
  number: 143
- chem smiles: "CN(CCO)CCn1nc2c3c(c(NCCNCCO)ccc31)C(=O)c1c(O)ccc(O)c1-2"
  test system: "lymphocytic leukemia P388"
  unit tag: "%"
  number: 182
- chem smiles: "CN(C)CCNCCn1nc2c3c(c(NCCNCCO)ccc31)C(=O)c1c(O)ccc(O)c1-2"
  test system: "lymphocytic leukemia P388"
  unit tag: "%"
  number: 188
- chem smiles: "CN(C)CCN(C)c1ccc2c3c(nn2CCNCCO)-c2c(O)ccc(O)c2C(=O)c13"
  test system: "lymphocytic leukemia P388"
  unit tag: "%"
  number: 179

Per the records, this molecule ( CN(C)CCNc1ccc2c3c(nn2CCNCCO)-c2c(O)ccc(O)c2C(=O)c13 ) has response vs control in vivo at 6.25 mg/kg equal to 165

Per the records, this molecule ( O=C1c2ccccc2-c2nn(CCNCCO)c3ccc(NCCNCCO)c1c23 ) has response vs control in vivo at 6.25 mg/kg equal to 147

Per the records, this molecule ( CN(C)CCn1nc2c3c(c(NCCNCCO)ccc31)C(=O)c1c(O)ccc(O)c1-2 ) has response vs control in vivo at 6.25 mg/kg equal to 214

Per the records, this molecule ( CN1CCN(c2ccc3c4c(nn3CCNCCO)-c3c(O)ccc(O)c3C(=O)c24)CC1 ) has response vs control in vivo at 6.25 mg/kg equal to 163

Per the records, this molecule ( NCCCCNc1ccc2c3c(nn2CCNCCO)-c2c(O)ccc(O)c2C(=O)c13 ) has response vs control in vivo at 6.25 mg/kg equal to 131

Per the records, this molecule ( CCN(CC)CCNc1ccc2c3c(nn2CCNCCO)-c2ccccc2C(=O)c13 ) has response vs control in vivo at 6.25 mg/kg equal to 138

Per the records, this molecule ( CCN(CC)CCn1nc2c3c(c(NCCNCCO)ccc31)C(=O)c1c(O)ccc(O)c1-2 ) has response vs control in vivo at 6.25 mg/kg equal to 180

Per the records, this molecule ( NCCn1nc2c3c(c(NCCNCCO)ccc31)C(=O)c1c(O)ccc(O)c1-2 ) has response vs control in vivo at 6.25 mg/kg equal to 163

Per the records, this molecule ( O=C1c2c(O)ccc(O)c2-c2nn(CCNCCO)c3ccc(NCCNCCO)c1c23 ) has response vs control in vivo at 6.25 mg/kg equal to 206

Per the records, this molecule ( NCCn1nc2c3c(c(NCCCNCCO)ccc31)C(=O)c1c(O)ccc(O)c1-2 ) has response vs control in vivo at 6.25 mg/kg equal to 184

Per the records, this molecule ( O=C1c2c(O)ccc(O)c2-c2nn(CCNCCO)c3ccc(Cl)c1c23 ) has response vs control in vivo at 6.25 mg/kg equal to 131

Per the records, this molecule ( CN(C)CCNc1ccc2c3c(nn2CCNCCO)-c2ccccc2C(=O)c13 ) has response vs control in vivo at 6.25 mg/kg equal to 163

Per the records, this molecule ( CCN(CC)CCn1nc2c3c(c(NCCN)ccc31)C(=O)c1c(O)ccc(O)c1-2 ) has response vs control in vivo at 6.25 mg/kg equal to 189
